Biological target: Ectonucleotide pyrophosphatase/phosphodiesterase family member 3 (Homo sapiens)
Experiment: Inhibition of ENPP3 (unknown origin) assessed as reduction in 2'3'-cGAMP hydrolysis at 50 uM by AMP-Glo assay relative to control
measure: inhibition

mol.smiles: Cc1nc2ncnn2c(NCc2ccc(C(=O)O)cc2)c1Cc1cccc(N)c1
measure: inhibition
value: < 1%

Test item Cc1nc2ncnn2c(N(C)C)c1Cc1cccc(O)c1 ; Ectonucleotide pyrophosphatase/phosphodiesterase family member 3 (Homo sapiens); reported inhibition was < 1%

Test item Cc1nc2ncnn2c(N(C)C)c1Cc1cccc(N)c1 ; Ectonucleotide pyrophosphatase/phosphodiesterase family member 3 (Homo sapiens); reported inhibition was 2.2%

Test item Cc1nc2ncnn2c(N(C)C)c1Cc1ccccc1 ; Ectonucleotide pyrophosphatase/phosphodiesterase family member 3 (Homo sapiens); reported inhibition was < 1%

----------
# inhibition values compiled below
Biological target: Autotaxin (Homo sapiens)
Test: Inhibition of ENPP2 (unknown origin) at 50 uM relative to control
The reply should be a number in %, with the unit left off.

mol.smiles: Cc1nc2ncnn2c(NCc2ccc(C(=O)O)cc2)c1Cc1cccc(N)c1
inhibition, %: 8.9

Test item Cc1nc2ncnn2c(N(C)C)c1Cc1cccc(N)c1 ; Autotaxin (Homo sapiens); reported inhibition was 11

Test item Cc1nc2ncnn2c(N(C)C)c1Cc1cccc(Cl)c1 ; Autotaxin (Homo sapiens); reported inhibition was 19

Test item Cc1nc2ncnn2c(N(C)C)c1Cc1cccc([N+](=O)[O-])c1 ; Autotaxin (Homo sapiens); reported inhibition was 11

Test item CCCNc1c(Cc2ccccc2)c(C)nc2ncnn12 ; Autotaxin (Homo sapiens); reported inhibition was 12

----------
Target: Ectonucleotide pyrophosphatase/phosphodiesterase family member 3 (Homo sapiens) (UniProt O14638)
Sequence (whole entry): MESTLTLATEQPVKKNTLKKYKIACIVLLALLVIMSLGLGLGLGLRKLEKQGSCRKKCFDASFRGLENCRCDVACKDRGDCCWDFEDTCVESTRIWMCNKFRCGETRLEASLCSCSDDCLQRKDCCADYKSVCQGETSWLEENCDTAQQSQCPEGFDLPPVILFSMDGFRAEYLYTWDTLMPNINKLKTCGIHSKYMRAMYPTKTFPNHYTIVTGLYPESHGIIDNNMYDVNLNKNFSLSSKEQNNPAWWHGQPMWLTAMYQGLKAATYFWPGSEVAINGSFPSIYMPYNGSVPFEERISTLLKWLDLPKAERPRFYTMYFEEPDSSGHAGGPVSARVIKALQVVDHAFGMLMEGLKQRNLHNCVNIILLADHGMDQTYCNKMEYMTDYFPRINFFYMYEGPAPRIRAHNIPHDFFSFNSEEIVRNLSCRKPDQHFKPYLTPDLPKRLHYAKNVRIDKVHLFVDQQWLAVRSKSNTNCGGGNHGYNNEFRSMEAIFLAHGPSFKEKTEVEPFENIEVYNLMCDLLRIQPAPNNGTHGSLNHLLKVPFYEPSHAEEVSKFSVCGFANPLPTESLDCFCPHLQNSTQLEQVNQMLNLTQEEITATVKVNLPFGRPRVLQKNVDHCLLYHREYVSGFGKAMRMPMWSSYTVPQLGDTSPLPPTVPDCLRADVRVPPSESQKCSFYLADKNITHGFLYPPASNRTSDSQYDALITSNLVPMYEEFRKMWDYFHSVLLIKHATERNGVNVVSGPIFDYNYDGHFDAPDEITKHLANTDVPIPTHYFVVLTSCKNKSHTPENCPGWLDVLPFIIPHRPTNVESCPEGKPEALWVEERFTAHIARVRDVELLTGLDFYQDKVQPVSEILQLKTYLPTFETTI
Assay: Inhibition of ENPP3 (unknown origin) at 50 uM relative to control
# inhibition values compiled below
# answer = value followed by unit

Below: 5 compounds and their reported inhibition.
mol.smiles: CCNc1c(Cc2ccccc2)c(C)nc2ncnn12
inhibition: 7%

mol.smiles: Cc1cccc(Cc2c(C)nc3ncnn3c2N(C)C)c1
inhibition: 4.9%

mol.smiles: Cc1nc2ncnn2c(N(C)C)c1Cc1ccc(Cl)cc1
inhibition: 1.5%

mol.smiles: Cc1cc(N(C)C)n2ncnc2n1
inhibition: 10%

mol.smiles: CC(=O)Nc1cccc(Cc2c(C)nc3ncnn3c2N(C)C)c1
inhibition: 3%

Documented inhibition of Cc1nc2ncnn2c(N(C)C)c1Cc1ccccc1Cl : 3%

Documented inhibition of C#CCNc1c(Cc2ccccc2)c(C)nc2ncnn12 : 24%

Documented inhibition of Cc1nc2ncnn2c(N(C)C)c1Cc1ccccc1[N+](=O)[O-] : 6.8%

----------
Target: Glycerophosphocholine cholinephosphodiesterase ENPP6 (Homo sapiens)
Sequence (whole entry): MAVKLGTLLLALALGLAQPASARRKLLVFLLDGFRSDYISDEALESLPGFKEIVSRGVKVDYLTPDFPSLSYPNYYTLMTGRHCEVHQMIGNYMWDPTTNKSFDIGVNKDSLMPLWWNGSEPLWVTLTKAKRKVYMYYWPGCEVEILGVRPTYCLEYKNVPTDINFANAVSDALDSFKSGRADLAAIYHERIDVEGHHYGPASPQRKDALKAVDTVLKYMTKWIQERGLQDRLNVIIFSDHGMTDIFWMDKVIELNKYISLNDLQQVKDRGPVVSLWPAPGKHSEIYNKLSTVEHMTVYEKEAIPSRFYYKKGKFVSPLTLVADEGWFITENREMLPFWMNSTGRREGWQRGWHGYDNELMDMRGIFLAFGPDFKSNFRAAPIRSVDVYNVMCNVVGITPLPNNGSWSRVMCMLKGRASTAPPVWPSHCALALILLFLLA
Assay: Inhibition of ENPP6 (unknown origin) at 50 uM relative to control
# inhibition values compiled below

mol.smiles: CCNc1c(Cc2ccccc2)c(C)nc2ncnn12
assay.system: Glycerophosphocholine cholinephosphodiesterase ENPP6 (Homo sapiens)
inhibition: < 1%

mol.smiles: CCCNc1c(Cc2ccccc2)c(C)nc2ncnn12
assay.system: Glycerophosphocholine cholinephosphodiesterase ENPP6 (Homo sapiens)
inhibition: 3.8%

mol.smiles: CNc1c(Cc2ccccc2)c(C)nc2ncnn12
assay.system: Glycerophosphocholine cholinephosphodiesterase ENPP6 (Homo sapiens)
inhibition: < 1%

mol.smiles: CC(=O)Nc1ccc(Cc2c(C)nc3ncnn3c2N(C)C)cc1
assay.system: Glycerophosphocholine cholinephosphodiesterase ENPP6 (Homo sapiens)
inhibition: 2.3%

mol.smiles: Cc1nc2ncnn2c(NCc2ccc(C(=O)O)cc2)c1Cc1cccc(N)c1
assay.system: Glycerophosphocholine cholinephosphodiesterase ENPP6 (Homo sapiens)
inhibition: < 1%

Documented inhibition of CCCN(CCC)c1c(Cc2ccccc2)c(C)nc2ncnn12 : < 1%

----------
# inhibition values compiled below
Biological target: Ectonucleotide pyrophosphatase/phosphodiesterase family member 3 (Homo sapiens) (UniProt O14638)
Experiment: Inhibition of ENPP3 (unknown origin) at 10 uM relative to control
The reply should be a number in %, with the unit left off.

Below: 4 molecules and their reported inhibition.
mol.smiles: Cc1nc2ncnn2c(N2CCCCC2)c1Cc1ccccc1
result.unit: %
inhibition: 1
--
mol.smiles: Cc1nc2ncnn2c(N2CCCCCC2)c1Cc1ccccc1
result.unit: %
inhibition: 5
--
mol.smiles: Cc1nc2ncnn2c(N2CCCC2)c1Cc1ccccc1
result.unit: %
inhibition: 16
--
mol.smiles: Cc1nc2ncnn2c(N2CCC(C)CC2)c1Cc1ccccc1
result.unit: %
inhibition: 2

Documented inhibition of Cc1nc2ncnn2c(N(C)C)c1Cc1ccccc1 : 19

Documented inhibition of CCc1nc2ncnn2c(N(CC)Cc2ccccc2)c1Cc1ccccc1 : 2

----------
# inhibition values compiled below
Target: UniProtKB Q13822
Assay: Inhibition of ENPP2 (unknown origin) at 50 uM relative to control

Below: 3 compounds and their reported inhibition.
mol.smiles: COCCNc1c(Cc2ccccc2)c(C)nc2ncnn12
inhibition: < 1%
--
mol.smiles: Cc1nc2ncnn2c(NCCO)c1Cc1ccccc1
inhibition: < 1%
--
mol.smiles: Cc1nc2ncnn2c(N(C)C)c1CC1CCCCC1
inhibition: < 1%

Test item Cc1cc(N(C)C)n2ncnc2n1 ; UniProtKB Q13822; reported inhibition was < 1%

----------
# inhibition values compiled below
Biological target: Ectonucleotide pyrophosphatase/phosphodiesterase family member 3 (Homo sapiens) (UniProt O14638)
Test: Inhibition of ENPP3 (unknown origin) at 50 uM relative to control
The reply should be a number in %, with the unit left off.

mol.smiles: Cc1nc2ncnn2c(NCc2ccc(C(=O)O)cc2)c1Cc1cccc(N)c1
inhibition [%]: 33
--
mol.smiles: Cc1nc2ncnn2c(N(C)C)c1CC1CCCCC1
inhibition [%]: 3.7
--
mol.smiles: Cc1nc2ncnn2c(N(C)C)c1Cc1ccc([N+](=O)[O-])cc1
inhibition [%]: 2.7

# context switch: different compound, same inhibition
Documented inhibition of Cc1nc2ncnn2c(N(C)C)c1Cc1cccc([N+](=O)[O-])c1 : 4.3
